These entries and their values trace back to ChEMBL document CHEMBL1136016.

target: Adenosine receptors; A2b & A3 (Homo sapiens) (UniProt P29275+P0DMS8); experiment: Selectivity ratio (h2B/hA3); format: protein assay
We begin with a simple list: items and their reported Ratio.
Answer with a number only.

- CCn1cc2c(nc(NC(=O)Nc3ccc(Br)cc3)n3nc(-c4ccco4)nc23)n1: 800
- CCn1cc2c(nc(NC(=O)Nc3ccc([N+](=O)[O-])cc3)n3nc(-c4ccco4)nc23)n1: 348

Pending compound:
**Query** Answer with the recorded Ratio of Cn1cc2c(nc(NC(=O)Nc3ccc([N+](=O)[O-])cc3)n3nc(-c4ccco4)nc23)n1 only.
**Result** 419

---

molecular target: Adenosine receptor A2b (Homo sapiens, UniProt P29275); assay: Displacement of [3H]-DPCPX from human Adenosine A2B receptor expressed in HEK293 cells; range 91-148; assay type: cell-based
Sequence (P29275 whole entry): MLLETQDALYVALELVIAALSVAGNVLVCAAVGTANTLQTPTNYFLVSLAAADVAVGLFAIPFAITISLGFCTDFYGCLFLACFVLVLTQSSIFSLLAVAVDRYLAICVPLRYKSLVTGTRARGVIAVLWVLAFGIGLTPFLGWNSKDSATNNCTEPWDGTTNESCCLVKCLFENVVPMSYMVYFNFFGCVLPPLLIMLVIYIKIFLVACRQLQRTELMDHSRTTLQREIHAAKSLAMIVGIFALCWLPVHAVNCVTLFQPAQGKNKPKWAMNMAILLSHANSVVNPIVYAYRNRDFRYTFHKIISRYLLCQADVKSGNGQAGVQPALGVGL
quantity measured: pKi
Quick note: pKi values are minus log10 of concentrations in mol/L.

**Query** Answer with the recorded pKi of Cn1cc2c(nc(NC(=O)Nc3ccc(Cl)c(Cl)c3)n3nc(-c4ccco4)nc23)n1 only.
**Result** 6.94

---

target: Adenosine receptor A3 (Homo sapiens, UniProt P0DMS8); experiment: biochemical
Sequence (P0DMS8 whole entry): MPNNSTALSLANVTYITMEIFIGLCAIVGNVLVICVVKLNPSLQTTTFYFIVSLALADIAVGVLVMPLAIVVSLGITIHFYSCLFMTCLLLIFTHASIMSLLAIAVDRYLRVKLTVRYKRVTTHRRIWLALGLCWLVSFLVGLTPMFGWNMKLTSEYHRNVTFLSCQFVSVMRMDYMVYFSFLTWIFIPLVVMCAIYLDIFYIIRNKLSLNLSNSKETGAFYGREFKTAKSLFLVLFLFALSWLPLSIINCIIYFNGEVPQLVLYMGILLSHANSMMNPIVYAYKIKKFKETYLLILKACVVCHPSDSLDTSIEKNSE
Description: Displacement of [3H]MRE3008-F20 from human Adenosine A3 receptor expressed in HEK cells; range 0.16-0.28
quantity measured: Ki (nM)
Give just the numeric value; nM need not be written.

**Query** Report Ki under test system Adenosine receptor A3 (Homo sapiens, UniProt P0DMS8) for CCCCn1cc2c(nc(NC(=O)Nc3ccc(C)cc3)n3nc(-c4ccco4)nc23)n1 .
**Result** 0.21

---

biological target: UniProt:P29275; assay: Displacement of [3H]DPCPX from human Adenosine A2B receptor expressed in HEK293 cells; range 115-161; type: cell-based
quantity measured: Ki (nM)
Give just the numeric value; nM need not be written.

**Query** Answer with the recorded Ki of CCCn1cc2c(nc(NC(=O)Nc3ccc(C(F)(F)F)cc3)n3nc(-c4ccco4)nc23)n1 only.
**Result** 136

---

target: Adenosine receptor A1 (Homo sapiens, UniProt P30542); assay: Displacement of [3H]DPCPX from human Adenosine A1 receptor expressed in CHO cells; range 453-609; assay type: cell-based
Sequence (P30542 whole entry): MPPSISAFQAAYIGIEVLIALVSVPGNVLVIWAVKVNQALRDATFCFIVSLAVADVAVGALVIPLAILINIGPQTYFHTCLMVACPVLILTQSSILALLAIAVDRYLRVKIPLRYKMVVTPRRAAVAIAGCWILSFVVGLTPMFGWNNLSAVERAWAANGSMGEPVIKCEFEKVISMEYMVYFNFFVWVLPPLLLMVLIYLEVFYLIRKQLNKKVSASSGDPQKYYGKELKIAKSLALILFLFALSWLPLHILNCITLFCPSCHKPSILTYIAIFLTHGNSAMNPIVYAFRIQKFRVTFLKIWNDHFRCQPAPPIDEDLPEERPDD
quantity measured: pKi
Quick note: pKi values are minus log10 of concentrations in mol/L.

**Query** Answer with the recorded pKi of CCn1cc2c(nc(NC(=O)Nc3ccc(Cl)c(Cl)c3)n3nc(-c4ccco4)nc23)n1 only.
**Result** 6.28

---

target: Adenosine receptor A2a (Homo sapiens); test: Displacement of [3H]SCH-58261 from human Adenosine A2A receptor expressed in HEK293 cells; range 402-608; assay type: cell-based
Sequence (P29274 whole entry): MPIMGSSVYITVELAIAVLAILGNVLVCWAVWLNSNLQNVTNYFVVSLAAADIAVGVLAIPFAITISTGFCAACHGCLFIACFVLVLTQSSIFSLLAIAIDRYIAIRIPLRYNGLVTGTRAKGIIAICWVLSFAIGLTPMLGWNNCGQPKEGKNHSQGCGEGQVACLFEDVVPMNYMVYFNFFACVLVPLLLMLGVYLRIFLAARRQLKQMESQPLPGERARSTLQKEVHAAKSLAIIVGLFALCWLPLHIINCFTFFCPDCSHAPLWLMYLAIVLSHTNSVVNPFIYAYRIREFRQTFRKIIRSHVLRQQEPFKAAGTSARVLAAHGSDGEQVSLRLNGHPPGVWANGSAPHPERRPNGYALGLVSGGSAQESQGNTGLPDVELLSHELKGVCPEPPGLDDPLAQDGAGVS
quantity measured: Ki (nM)
Give just the numeric value; nM need not be written.

**Query** Answer with the recorded Ki of CCCCn1cc2c(nc(NC(=O)Nc3ccc(Cl)c(Cl)c3)n3nc(-c4ccco4)nc23)n1 only.
**Result** 495

---

molecular target: Adenosine receptor A2b (Homo sapiens, UniProt P29275); assay: Displacement of [3H]DPCPX from human Adenosine A2B receptor expressed in HEK293 cells; range 261-336; format: cell-based
quantity measured: Ki (nM)
Give just the numeric value; nM need not be written.

**Query** Report Ki under test system Adenosine receptor A2b (Homo sapiens, UniProt P29275) for CCn1cc2c(nc(NC(=O)Nc3ccc(Br)cc3)n3nc(-c4ccco4)nc23)n1 .
**Result** 296
